# test: Total clearance in Sprague-Dawley rat at 10 mg/kg, po or 2 mg/kg, iv administered as single dose measured up to 24 hrs post dose by LC-MS/MS analysis
# Type: ADME, organism-based
# condition.info: in vivo
property: clearance

stdin: Look up clearance: CC(NC(=O)c1ccc(C(F)(F)F)cc1Cl)C1(N2CCN(S(=O)(=O)c3cn(C)nn3)CC2)CCC(F)(F)CC1.Cl (single isomer, unassigned; (+))
stdout: 1.4 L/h/kg

====

# test: AUClast in cynomolgus monkey plasma at 1 mg/kg, iv or 5 mg/kg, po measured up to 12 or 24 hrs post dose by LC-MS/MS analysis
# Type: ADME, organism-based, Macaca fascicularis
property: AUC(0-t) at 24 h (ng·h/mL)
Hi! Could you send only the number? It should be in ng·h/mL, unit omitted.

stdin: Look up AUC(0-t) at 24 h: CC(NC(=O)c1ccc(C(F)(F)F)cc1Cl)C1(N2CCN(S(=O)(=O)c3cn(C)nn3)CC2)CCC(F)(F)CC1.Cl (single isomer, unassigned; (+))
stdout: 690

====

# concentration at 2 h per record follows
# test: Drug level in Sprague-Dawley rat CSF at 1 mg/kg, po measured 2 hrs post dose by LC-MS/MS analysis
# Assay type: ADME, organism-based, Cerebrospinal fluid
# condition.info: read-out: Drug uptake
Hi! Could you send only the number? It should be in nM, unit omitted.

stdin: Look up concentration at 2 h: CC(NC(=O)c1ccc(C(F)(F)F)cc1Cl)C1(N2CCN(S(=O)(=O)c3cn(C)nn3)CC2)CCC(F)(F)CC1.Cl (single isomer, unassigned; (+))
stdout: 0.1

Turning now to a further record.
stdin: Look up concentration at 2 h: Cl.Cn1cc(S(=O)(=O)N2CCN(C3(CNC(=O)c4ccc(C(F)(F)F)cc4Cl)CCC(F)(F)CC3)CC2)nn1
stdout: 3.7

====

# test: Drug level in Sprague-Dawley rat brain at 0.3 mg/kg, po measured 2 hrs post dose by LC-MS/MS analysis
# Format: ADME, organism-based
# condition.info: read-out: Drug uptake
property: concentration at 2 h (nM)
Hi! Could you send only the number? It should be in nM, unit omitted.

stdin: Look up concentration at 2 h: Cl.Cn1cc(S(=O)(=O)N2CCN(C3(CNC(=O)c4ccc(C(F)(F)F)cc4Cl)CCC(F)(F)CC3)CC2)nn1
stdout: 7.5

Turning now to a further record.
stdin: Look up concentration at 2 h: CC(NC(=O)c1ccc(C(F)(F)F)cc1Cl)C1(N2CCN(S(=O)(=O)c3cn(C)nn3)CC2)CCC(F)(F)CC1.Cl (single isomer, unassigned; (+))
stdout: 3.2

====

# test: Drug level in cynomolgus monkey plasma at 3 mg/kg, po measured at 24 hrs post dose by LC-MS/MS analysis
# Format: ADME, organism-based, Macaca fascicularis
property: concentration at 24 h

stdin: Look up concentration at 24 h: CC(NC(=O)c1ccc(C(F)(F)F)cc1Cl)C1(N2CCN(S(=O)(=O)c3cn(C)nn3)CC2)CCC(F)(F)CC1.Cl (single isomer, unassigned; (+))
stdout: < 1 ng/mL

====

# test: Protein binding in monkey plasma
# condition.info: cynomolgus monkey, read-out: PPB (converted)
property: fraction unbound
Format: numeric value only, no unit, no commentary.

stdin: Look up fraction unbound: CC(NC(=O)c1ccc(C(F)(F)F)cc1Cl)C1(N2CCN(S(=O)(=O)c3cn(C)nn3)CC2)CCC(F)(F)CC1.Cl (single isomer, unassigned; (+))
stdout: 0.19

====

# test: Drug level in cynomolgus monkey plasma at 3 mg/kg, po measured at 0.5 hr post dose by LC-MS/MS analysis
# Format: ADME, organism-based, Macaca fascicularis
property: concentration at 0.5 h
Form entry: enter the amount, then its unit.

stdin: Look up concentration at 0.5 h: CC(NC(=O)c1ccc(C(F)(F)F)cc1Cl)C1(N2CCN(S(=O)(=O)c3cn(C)nn3)CC2)CCC(F)(F)CC1.Cl (single isomer, unassigned; (+))
stdout: 1.6 ng/mL

====

# test: Drug level in cynomolgus monkey plasma at 3 mg/kg, po measured at 1 hr post dose by LC-MS/MS analysis
# Type: ADME, organism-based, Macaca fascicularis
property: concentration at 1 h (ng/mL)
Hi! Could you send only the number? It should be in ng/mL, unit omitted.

stdin: Look up concentration at 1 h: CC(NC(=O)c1ccc(C(F)(F)F)cc1Cl)C1(N2CCN(S(=O)(=O)c3cn(C)nn3)CC2)CCC(F)(F)CC1.Cl (single isomer, unassigned; (+))
stdout: 3.6

====

# test: Drug level in cynomolgus monkey plasma at 10 mg/kg, po measured at 8 hrs post dose by LC-MS/MS analysis
# Assay type: ADME, organism-based, Macaca fascicularis
property: concentration at 8 h (ng/mL)
Hi! Could you send only the number? It should be in ng/mL, unit omitted.

stdin: Look up concentration at 8 h: CC(NC(=O)c1ccc(C(F)(F)F)cc1Cl)C1(N2CCN(S(=O)(=O)c3cn(C)nn3)CC2)CCC(F)(F)CC1.Cl (single isomer, unassigned; (+))
stdout: 156

====

# test: Tmax in cynomolgus monkey plasma at 5 mg/kg, po by LC-MS/MS analysis
# Format: ADME, organism-based, Macaca fascicularis
property: Tmax (h)
Hi! Could you send only the number? It should be in h, unit omitted.

stdin: Look up Tmax: CC(NC(=O)c1ccc(C(F)(F)F)cc1Cl)C1(N2CCN(S(=O)(=O)c3cn(C)nn3)CC2)CCC(F)(F)CC1.Cl (single isomer, unassigned; (+))
stdout: 1.67

====

# test: Drug level in Sprague-Dawley rat plasma at 1 mg/kg, po qd for 5 days measured 2 hrs post last dose by LC-MS/MS analysis
# Type: ADME, organism-based
property: concentration at 2 h (nM)
Hi! Could you send only the number? It should be in nM, unit omitted.

stdin: Look up concentration at 2 h: Cl.Cn1cc(S(=O)(=O)N2CCN(C3(CNC(=O)c4ccc(C(F)(F)F)cc4Cl)CCC(F)(F)CC3)CC2)nn1
stdout: 38.2

====

# test: Drug level in cynomolgus monkey CSF at 10 mg/kg, po measured at 0.5 hr post dose by LC-MS/MS analysis
# Format: ADME, organism-based, Macaca fascicularis, Cerebrospinal fluid
# condition.info: read-out: Drug uptake
property: concentration at 0.5 h
Form entry: enter the amount, then its unit.

stdin: Look up concentration at 0.5 h: CC(NC(=O)c1ccc(C(F)(F)F)cc1Cl)C1(N2CCN(S(=O)(=O)c3cn(C)nn3)CC2)CCC(F)(F)CC1.Cl (single isomer, unassigned; (+))
stdout: 1.8 ng/mL

====

# measured.on: Cytochrome P450 3A4 (Homo sapiens, UniProt P08684)
# Sequence (P08684 whole entry): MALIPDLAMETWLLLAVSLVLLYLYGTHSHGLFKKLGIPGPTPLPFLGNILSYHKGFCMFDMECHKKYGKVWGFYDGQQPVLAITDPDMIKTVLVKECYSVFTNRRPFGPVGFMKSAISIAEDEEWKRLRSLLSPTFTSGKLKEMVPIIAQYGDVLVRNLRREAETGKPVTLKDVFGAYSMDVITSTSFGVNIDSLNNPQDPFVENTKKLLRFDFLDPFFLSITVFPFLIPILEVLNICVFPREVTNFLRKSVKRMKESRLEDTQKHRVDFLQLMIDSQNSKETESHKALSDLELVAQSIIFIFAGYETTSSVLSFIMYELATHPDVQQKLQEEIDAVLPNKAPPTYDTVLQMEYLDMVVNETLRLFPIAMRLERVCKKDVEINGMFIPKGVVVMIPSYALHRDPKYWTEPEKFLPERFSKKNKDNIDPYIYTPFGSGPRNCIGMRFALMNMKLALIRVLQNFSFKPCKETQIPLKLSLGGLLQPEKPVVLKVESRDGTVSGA
pIC50: −log10 of the molar value.
property: pIC50

stdin: Can you look up pIC50 on Cytochrome P450 3A4 (Homo sapiens, UniProt P08684) for CC(NC(=O)c1ccc(C(F)(F)F)cc1Cl)C1(N2CCN(S(=O)(=O)c3cn(C)nn3)CC2)CCC(F)(F)CC1.Cl (single isomer, unassigned; (+)) ?
stdout: < 5.14

====

# test: Drug level in Sprague-Dawley rat CSF at 0.3 mg/kg, po measured 2 hrs post dose by LC-MS/MS analysis
# Format: ADME, organism-based, Cerebrospinal fluid
# condition.info: read-out: Drug uptake
property: concentration at 2 h (nM)
Hi! Could you send only the number? It should be in nM, unit omitted.

stdin: Look up concentration at 2 h: Cl.Cn1cc(S(=O)(=O)N2CCN(C3(CNC(=O)c4ccc(C(F)(F)F)cc4Cl)CCC(F)(F)CC3)CC2)nn1
stdout: 2.7

====

# test: Drug level in cynomolgus monkey CSF at 10 mg/kg, po measured at 1 hr post dose by LC-MS/MS analysis
# Assay type: ADME, organism-based, Macaca fascicularis, Cerebrospinal fluid
# condition.info: read-out: Drug uptake
property: concentration at 1 h (ng/mL)
Hi! Could you send only the number? It should be in ng/mL, unit omitted.

stdin: Look up concentration at 1 h: CC(NC(=O)c1ccc(C(F)(F)F)cc1Cl)C1(N2CCN(S(=O)(=O)c3cn(C)nn3)CC2)CCC(F)(F)CC1.Cl (single isomer, unassigned; (+))
stdout: 5.9

====

# test: Drug level in Sprague-Dawley rat CSF at 1 mg/kg, po qd for 5 days measured 2 hrs post last dose by LC-MS/MS analysis
# Format: ADME, organism-based, Cerebrospinal fluid
# condition.info: read-out: Drug uptake
property: concentration at 2 h
Form entry: enter the amount, then its unit.

stdin: Look up concentration at 2 h: Cl.Cn1cc(S(=O)(=O)N2CCN(C3(CNC(=O)c4ccc(C(F)(F)F)cc4Cl)CCC(F)(F)CC3)CC2)nn1
stdout: 1 nM

====

# test: Drug level in cynomolgus monkey plasma at 10 mg/kg, po measured at 1 hr post dose by LC-MS/MS analysis
# Type: ADME, organism-based, Macaca fascicularis
property: concentration at 1 h (ng/mL)
Hi! Could you send only the number? It should be in ng/mL, unit omitted.

stdin: Look up concentration at 1 h: CC(NC(=O)c1ccc(C(F)(F)F)cc1Cl)C1(N2CCN(S(=O)(=O)c3cn(C)nn3)CC2)CCC(F)(F)CC1.Cl (single isomer, unassigned; (+))
stdout: 203
